- Target Under Test: beta-catenin/TCF4 engagement (Homo sapiens, UniProt P35222)
- Construct: expressed in transfected cells; host or cells: HEK293
- Sequence (P35222 whole entry): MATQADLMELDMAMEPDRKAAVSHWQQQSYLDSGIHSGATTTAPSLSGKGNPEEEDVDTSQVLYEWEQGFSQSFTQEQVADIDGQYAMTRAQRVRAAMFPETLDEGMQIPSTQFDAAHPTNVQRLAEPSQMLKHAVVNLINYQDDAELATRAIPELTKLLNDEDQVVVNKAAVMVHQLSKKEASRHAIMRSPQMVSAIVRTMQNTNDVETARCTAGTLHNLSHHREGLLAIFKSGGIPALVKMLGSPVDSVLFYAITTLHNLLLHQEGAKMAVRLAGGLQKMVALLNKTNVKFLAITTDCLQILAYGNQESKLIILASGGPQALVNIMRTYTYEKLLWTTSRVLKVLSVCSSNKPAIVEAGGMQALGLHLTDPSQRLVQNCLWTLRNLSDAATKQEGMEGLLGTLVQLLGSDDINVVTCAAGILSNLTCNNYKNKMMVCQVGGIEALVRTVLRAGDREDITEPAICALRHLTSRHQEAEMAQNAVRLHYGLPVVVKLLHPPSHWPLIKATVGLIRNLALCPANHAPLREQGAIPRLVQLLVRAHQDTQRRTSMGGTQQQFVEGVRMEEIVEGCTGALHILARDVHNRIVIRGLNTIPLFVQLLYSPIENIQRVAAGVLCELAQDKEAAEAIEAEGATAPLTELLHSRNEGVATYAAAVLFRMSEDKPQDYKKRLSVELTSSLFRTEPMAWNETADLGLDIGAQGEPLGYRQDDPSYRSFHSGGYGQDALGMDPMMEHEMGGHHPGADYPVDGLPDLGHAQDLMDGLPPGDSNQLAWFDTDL
- Assay Procedure: Nano-BRET target engagement assay (B-cat-Halo & TCF4-Luc in HEK293 cells)
- Format: cell-based
- Experimental Setup: absolute IC50; read-out: NanoBRET Abs IC50
Threshold-based label: IC50 under 20 µM gives class 1, IC50 not under 20 µM gives class 0.

Molecule	Group Label
CC(=O)N1CCC[C@]12CC=CCCCC1(CCCC=CCCCCCC[C@@](C)(C(=O)N[C@@H](Cc3ccccc3)C(=O)N[C@@H](Cc3csc4ccccc34)C(N)=O)NC(=O)[C@H](CCCNC(N)=O)NC(=O)[C@H](Cc3ccccc3)NC(=O)[C@H](C)NC(=O)[C@H](C)NC(=O)[C@H](CCC(=O)O)NC(=O)[C@H](CC(=O)O)NC1=O)NC(=O)[C@H](CC(C)C)NC(=O)[C@H](CC(=O)O)NC2=O (stereo partly drawn)	class 0
CC(=O)N1CCC[C@]12CC=CCCCC1(CCCC=CCCCOC(=O)N3CC[C@@](C(=O)N[C@@H](Cc4ccccc4Cl)C(=O)N[C@@H](Cc4csc5ccccc45)C(=O)N[C@@H](CCC(N)=O)C(N)=O)(C3)NC(=O)[C@H](CC(N)=O)NC(=O)[C@H](Cc3ccccc3)NC(=O)[C@H](C)NC(=O)[C@H](C)NC(=O)[C@H](CC(=O)O)NC(=O)[C@H](CC(=O)O)NC1=O)NC(=O)[C@H](CC(C)(C)C)NC(=O)[C@H](CC(=O)S)NC2=O (stereo partly drawn) [I-1722]	class 0
CC(=O)N1CCC[C@]12CC=CCCCC1(CCCC=CCCCOC(=O)N3CC[C@@](C(=O)N[C@@H](Cc4ccsc4)C(=O)N[C@@H](Cc4csc5ccccc45)C(=O)N[C@@H](CCC(N)=O)C(N)=O)(C3)NC(=O)[C@H](CC(N)=O)NC(=O)[C@H](Cc3ccccc3)NC(=O)[C@H](C)NC(=O)[C@H](C)NC(=O)[C@H](CNCC(=O)O)NC(=O)[C@H](CC(=O)O)NC1=O)NC(=O)[C@H](CC(C)(C)C)NC(=O)[C@H](CC(=O)O)NC2=O (stereo partly drawn) [I-1732]	class 0
CC(=O)N1CCC[C@]12CC=CCCCC1(CCCC=CCCCOC(=O)N3CC[C@@](C(=O)N[C@@H](Cc4ccccc4Cl)C(=O)N[C@@H](Cc4csc5ccccc45)C(=O)N[C@@H](CCC(N)=O)C(N)=O)(C3)NC(=O)[C@H]([C@@H](C)O)NC(=O)[C@H](Cc3ccccc3)NC(=O)[C@H](C)NC(=O)[C@H](C)NC(=O)[C@H]([C@@H](C)O)NC(=O)[C@H](CC(=O)O)NC1=O)NC(=O)[C@H](CC(C)(C)C)NC(=O)[C@H](CC(=O)O)NC2=O (stereo partly drawn)	class 0

[ask] Lab note: confirm whether the reported IC50 for this molecule is below 20 µM, equality not counting. molecule: CC(=O)N1CCC[C@]12CCCCCCC1(CCCCCCCCOC(=O)N3CC[C@@](C(=O)N[C@@H](Cc4ccsc4)C(=O)N[C@@H](Cc4csc5ccccc45)C(=O)N[C@@H](Cc4ccccc4)C(N)=O)(C3)NC(=O)[C@H]([C@@H](C)O)NC(=O)[C@H](Cc3ccccc3)NC(=O)[C@H](C)NC(=O)[C@H](CCCCNC(C)C)NC(=O)[C@H](CN(CC(=O)O)CC(F)(F)F)NC(=O)[C@H](CC(=O)O)NC1=O)NC(=O)[C@H](CC(C)(C)C)NC(=O)[C@H](CC(=O)O)NC2=O (stereo partly drawn)
[reply] class 0

[ask] Lab note: confirm whether the reported IC50 for this molecule is below 20 µM, equality not counting. molecule: CC(=O)N1CCC[C@]12CC=CCCCC1(CCCC=CCCCOC(=O)N3CC[C@@](C(=O)N[C@@H](Cc4ccccc4Cl)C(=O)N[C@@H](Cc4csc5ccccc45)C(=O)N[C@@H](CO)C(N)=O)(C3)NC(=O)[C@H]([C@@H](C)O)NC(=O)[C@H](Cc3ccccc3)NC(=O)[C@H](C)NC(=O)[C@H](C)NC(=O)[C@H](CC(=O)O)NC(=O)[C@H](CC(=O)O)NC1=O)NC(=O)[C@H](CC(C)(C)C)NC(=O)[C@H](CC(=O)O)NC2=O (stereo partly drawn)
[reply] class 1

[ask] Lab note: confirm whether the reported IC50 for this molecule is below 20 µM, equality not counting. molecule: CC(=O)NCCCC[C@@H]1NC(=O)[C@H](Cc2ccccc2)NC(=O)[C@H](C)NC(=O)[C@H](C)NC(=O)[C@H](Cc2cccc(C(=O)O)c2)NC(=O)[C@H](CC(=O)O)NC(=O)C2(CCCC=CCCCOC(=O)N3CC[C@@](C(=O)N[C@@H](Cc4ccccc4C(F)(F)F)C(=O)N[C@@H](Cc4csc5ccccc45)C(=O)N[C@@H](CCC(=O)N4CCOCC4)C(N)=O)(C3)NC1=O)CCCC=CC[C@]1(CCCN1C(C)=O)C(=O)N[C@@H](CC(=O)O)C(=O)N[C@@H](CC(C)(C)C)C(=O)N2 (stereo partly drawn) [I-2548]
[reply] class 1

[ask] Lab note: confirm whether the reported IC50 for this molecule is below 20 µM, equality not counting. molecule: CC(=O)N1CCC[C@]12CC=CCCCC1(CCCC=CCCCCCC[C@@](C)(C(=O)N[C@@H](Cc3ccsc3)C(=O)N[C@@H](Cc3csc4ccccc34)C(=O)N[C@@H](CCC(N)=O)C(N)=O)NC(=O)[C@H](CC(N)=O)NC(=O)[C@H](Cc3ccccc3)NC(=O)[C@H](C)NC(=O)[C@H](C)NC(=O)[C@H](CCC(=O)O)NC(=O)[C@H](CC(=O)O)NC1=O)NC(=O)[C@H](CC(C)(C)C)NC(=O)[C@H](CC(=O)O)NC2=O (stereo partly drawn)
[reply] class 1
